The origin of these recorded values is PubChem BioAssay (Tox21).

TEST SUMMARY: qHTS RealTime-Glo MT Cell Viability Assay in HEK293 cells - 32 hour (AID 1224868); further: nearly all actives have a fitted effect of over 50% in size
TEST PARAMETERS: RealTime-Glo luminescence; series mostly up to 76.8 µM
Records with an inconclusive call do not appear. Active and inactive are the calls of the source. The call rests on the fitted dose curve; in most records, active means well fitted cell-killing curve with a large enough effect in the repeat runs; inconclusive means weak or mixed curves, or effect the other way; inactive means flat fitted curve, though single readings scatter.
Answer with one of the outcomes given here: active, inactive

SMILES STRING: O=C(O)CCl
CAT: inactive
--
SMILES STRING: COc1ccccc1N
CAT: inactive
--
SMILES STRING: C[N+](C)(C)Cc1ccccc1
CAT: inactive

Could you kindly confirm the outcome this assay logged for CCNc1nc(Cl)nc(NCC)n1 ?
inactive

Could you kindly confirm the outcome this assay logged for CCC[N+]1(C)CCCC1 ?
inactive

Could you kindly confirm the outcome this assay logged for CCn1cc[n+](C)c1C ?
inactive

Could you kindly confirm the outcome this assay logged for CCCCCCn1cc[n+](C)c1 ?
active

Could you kindly confirm the outcome this assay logged for CNC ?
inactive

Could you kindly confirm the outcome this assay logged for Nc1ccccc1 ?
inactive

Could you kindly confirm the outcome this assay logged for O=c1nc(O)n(Cl)c(=O)n1Cl ?
inactive

Could you kindly confirm the outcome this assay logged for Cc1cc(Cl)ccc1OCC(=O)O ?
inactive

Could you kindly confirm the outcome this assay logged for O=[N+]([O-])O ?
inactive

====

TEST SUMMARY: qHTS assay for identifying genotoxic compounds that show differential cytotoxicity against isogenic chicken DT40 cell lines with known DNA damage response pathways - Rad54/Ku70 mutant cell line (AID 743015); further: nearly all actives have a fitted effect of over 60% in size
TEST PARAMETERS: DT40 Rad54/Ku70 mutant viability, CellTiter-Glo, 40 h; series mostly up to 66.8 µM
From the text: National Center for Advancing Translational Sciences [NCATS] NIH Chemical Genomics Center [NCGC] U.S. Environmental Protection Agency [EPA] National Institutes of Environmental Health Sciences [NIEHS] National Toxicology Program [NTP] U.S. Food and Drug Administration [FDA] DNA repair pathways play a critical role in cellular homeostasis by repairing DNA damage induced by endogenous processes and xenobiotics. […]
Results filed as inconclusive are left out. Calls of active or inactive are those of the source. The call rests on the fitted dose curve; in most records, active means well fitted cell-killing curve with a large enough effect in the repeat runs; inconclusive means weak or mixed curves; inactive means no such curve, though single readings can be large or run the other way.
Answer with one of the outcomes given here: active, inactive

Observe how each entry below is paired with its result.
COMPOUND: COP(=O)(OC)C(O)C(Cl)(Cl)Cl (stereo not drawn)
CAT: inactive
//
COMPOUND: Nc1ccccc1
CAT: inactive
//
COMPOUND: CCCC[n+]1ccccc1C
CAT: inactive

Could you kindly confirm the outcome this assay logged for O=C(O)CCl ?
inactive

Could you kindly confirm the outcome this assay logged for CCn1cc[n+](C)c1C ?
inactive

Could you kindly confirm the outcome this assay logged for CC(Cl)(Cl)C(=O)O ?
inactive

Could you kindly confirm the outcome this assay logged for N#CS ?
inactive

Could you kindly confirm the outcome this assay logged for Cc1cc(Cl)ccc1OCC(=O)O ?
inactive

Could you kindly confirm the outcome this assay logged for CCC[N+]1(C)CCCCC1 ?
inactive

Could you kindly confirm the outcome this assay logged for CCCC[N+]1(C)CCCCC1 ?
inactive

====

TEST SUMMARY: qHTS RealTime-Glo MT Cell Viability Assay in HepG2 cells - 16 hour (AID 1224885); further: nearly all actives have a fitted effect of over 50% in size
TEST PARAMETERS: RealTime-Glo luminescence; series mostly up to 76.8 µM
Inconclusive results are not listed. The source made the active and inactive calls. Calls follow the shape of the dose curve; as a rule, active = well fitted cell-killing curve with a large enough effect in the repeat runs; inconclusive = weak or mixed curves; inactive = flat fitted curve, though single readings scatter.
ENDPOINT NAME: outcome

Look over these answered cases.
SMILES STRING: CCC[N+]1(C)CCCCC1
outcome: inactive

SMILES STRING: CCCCCCCCn1cc[n+](C)c1
outcome: inactive

SMILES STRING: CCCC[N+]1(C)CCCC1
outcome: inactive

SMILES STRING: CNC
outcome: inactive

SMILES STRING: O=C(O)CCl
outcome: inactive

Supply recorded outcome for CC[n+]1ccccc1 here.
inactive

Supply recorded outcome for O=c1[nH]c(=O)n(Cl)c(=O)n1Cl here.
inactive

Supply recorded outcome for CCCCn1cc[n+](C)c1C here.
inactive

Supply recorded outcome for CCCCCCCCCCCC(=O)O here.
inactive
